System: rat hepatic microsomal PTPases
Conditions: PTPase activity, compound at 50 μM, rat liver microsomes
endpoint: % Change from Control (%)

molecule="CCCCc1oc2ccccc2c1C(=O)c1ccc2c(Br)c(OC(Cc3ccccc3)C(=O)O)ccc2c1 (centres unmarked) [Example 11]" value_reported=-77
molecule="CCCCCCCC(Sc1nc2ccccc2s1)c1cc2ccccc2s1 (centres unmarked) [Example 29]" value_reported=-24
molecule="Oc1ccc2cc(Cc3c(Cc4ccccc4)sc4ccccc34)ccc2c1Br [Example 13]" value_reported=-37
molecule="CCCCc1oc2ccccc2c1C(O)c1ncc(-c2ccc(OC)cc2)o1 (centres unmarked) [Example 22]" value_reported=-38
molecule="CCCCc1oc2ccccc2c1C(O)c1ccc2cc(O)ccc2c1 (centres unmarked) [Example 1]" value_reported=-31
molecule="CCCCc1oc2ccccc2c1C(=O)c1ccc(-c2ccc(O)cc2)cc1 [Example 15]" value_reported=-20
molecule="CCCCc1oc2ccccc2c1C(O)c1ccc(-c2cc(Br)c(O)c(Br)c2)cc1 (centres unmarked) [Example 20]" value_reported=-22
molecule="CCCCc1oc2ccccc2c1Cc1ccc(-c2ccc(OCC(=O)O)cc2)cc1 [Example 17]" value_reported=-76
